Taken from patent US11160807B1.

test system: NCI DTP 60 cell line panel; experiment: NCI DTP 60 Cell Line screen: Growth Inhibition (GI50), Total Growth Inhibition (TGI), Lethal Concentration (LC50/LD); type: cell-based, human; conditions: mean over NCI DTP 60 cell line panel; lethal concentration dose (cytotoxic effect)
Listing: Mean LD50 cytotoxic of selected compounds

Data request: I'd like to know its Mean LD50 cytotoxic. The compound in question is CC(=O)OCC1(C)C=C2C(=O)[C@](C)(O)C3(CC3)C(C)=C2C1O (some centres unmarked) [Illudofulvene Analog 0159]
Data returned: 14,790 nM

Data request: Tell me the measured Mean LD50 cytotoxic of CC[C@H](C)[C@H](NC(=O)[C@H]1CCCCN1C)C(=O)N(COC(=O)CC(C)C)[C@H](C[C@@H](OC(C)=O)c1nc(C(=O)N[C@@H](Cc2ccc(O)cc2)C[C@H](C)C(=O)O)cs1)C(C)C [Tubulysin A] , please.
Data returned: >10,000 nM

----------
system: NCI DTP 60 cell line panel; test: NCI DTP 60 Cell Line screen: Growth Inhibition (GI50), Total Growth Inhibition (TGI), Lethal Concentration (LC50/LD); format: cell-based, human; conditions: mean over NCI DTP 60 cell line panel; lethal concentration dose (cytotoxic effect)
Below, each entry is listed with its recorded Mean LD50 cytotoxic.

CCOCC1=C(C)C=C2C(=O)[C@](C)(O)C3(CC3)C(C)=C21
4,270 nM
COC(=O)C1=C(C(=O)OC)C23C=C(C)C1C2=C(C)C1(CC1)[C@@](C)(O)C3=O (stereo partly drawn)
53,700 nM

# context switch: different molecule, same Mean LD50 cytotoxic
Data request: May I ask what Mean LD50 cytotoxic has been recorded for CC1=C2C(=CC(C)(C)[C@@H]2O)C(=O)[C@](C)(O)C12CC2 [Illudin M, illudin M, reference compound] ?
Data returned: 291 nM
